In this section we review reported EC50 values for a set of binders.
tested-target: T1, human mutCALR on BaF3 cells stably expressing human MPL and human mutCALR (MPL-mutCALR cells) (human)
T1 construct: also called mutant calreticulin
T1 chain: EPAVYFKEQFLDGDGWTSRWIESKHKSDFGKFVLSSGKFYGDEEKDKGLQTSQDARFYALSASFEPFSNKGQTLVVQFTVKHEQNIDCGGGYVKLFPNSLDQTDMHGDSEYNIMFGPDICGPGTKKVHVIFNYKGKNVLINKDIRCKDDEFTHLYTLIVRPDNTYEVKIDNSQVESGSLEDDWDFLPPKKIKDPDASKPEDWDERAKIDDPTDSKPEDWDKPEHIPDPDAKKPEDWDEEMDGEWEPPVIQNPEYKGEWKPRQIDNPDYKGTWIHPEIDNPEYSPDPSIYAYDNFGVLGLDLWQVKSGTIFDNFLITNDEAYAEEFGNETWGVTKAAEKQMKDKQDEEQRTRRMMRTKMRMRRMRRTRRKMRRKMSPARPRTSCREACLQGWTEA
protocol: flow cytometry, BaF3 MPL-mutCALR cells

binder	EC50, ng/mL
anti-mutCALR antibody clone 64 (antibody, human IgG1, lambda, N297A, V domains shown) VH: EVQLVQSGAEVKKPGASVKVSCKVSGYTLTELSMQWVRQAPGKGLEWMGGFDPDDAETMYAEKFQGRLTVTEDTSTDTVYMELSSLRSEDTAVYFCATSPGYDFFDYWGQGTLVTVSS VL: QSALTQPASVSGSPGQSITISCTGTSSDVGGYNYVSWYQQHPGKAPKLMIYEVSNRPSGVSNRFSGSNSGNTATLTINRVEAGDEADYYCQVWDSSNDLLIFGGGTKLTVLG	7.2
anti-mutCALR antibody clone 28 (antibody, human IgG1, lambda, V domains shown, human IgG1) VH: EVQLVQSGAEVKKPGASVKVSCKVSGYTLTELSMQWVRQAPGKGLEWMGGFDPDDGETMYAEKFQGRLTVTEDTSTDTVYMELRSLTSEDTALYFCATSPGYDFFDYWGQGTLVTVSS VL: SYELTQPPSVSVAPGQTARITCGGNNIGSKSVHWYQQKPGQAPVLVVYDDSDRPSGIPERFSGSNSGNTATLTISRVEAGDEADYYCQVWDADSDQLIFGGGTKLTVLG	4150
anti-mutCALR antibody clone 72 (antibody, human IgG1, lambda, N297A, V domains shown) VH: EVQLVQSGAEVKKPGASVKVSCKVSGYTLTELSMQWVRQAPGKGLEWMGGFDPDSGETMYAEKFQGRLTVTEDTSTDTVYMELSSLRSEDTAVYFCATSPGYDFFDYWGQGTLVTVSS VL: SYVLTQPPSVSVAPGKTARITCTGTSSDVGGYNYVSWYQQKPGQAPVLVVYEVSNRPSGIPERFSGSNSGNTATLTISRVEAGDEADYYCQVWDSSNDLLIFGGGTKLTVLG	3.3
anti-mutCALR antibody clone 1 (antibody, human IgG1, lambda, V domains shown, human IgG1) VH: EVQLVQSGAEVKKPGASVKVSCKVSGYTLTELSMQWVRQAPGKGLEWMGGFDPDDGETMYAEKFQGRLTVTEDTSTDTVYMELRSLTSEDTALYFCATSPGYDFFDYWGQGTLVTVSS VL: SYVLTQPPSVSVAPGKTARITCGGNYIGSKSVHWYQQKPGQAPVLVVYDDGDRPSGIPARFSGSNSGNTATLTISRVEAGDEADYYCQVWDSISDHVVFGGGTKLTVLG	10
anti-mutCALR antibody clone 138 (antibody, human IgG1, lambda, N297A, V domains shown) VH: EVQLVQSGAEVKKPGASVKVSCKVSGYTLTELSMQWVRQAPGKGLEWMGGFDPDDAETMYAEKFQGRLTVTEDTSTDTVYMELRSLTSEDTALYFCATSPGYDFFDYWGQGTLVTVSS VL: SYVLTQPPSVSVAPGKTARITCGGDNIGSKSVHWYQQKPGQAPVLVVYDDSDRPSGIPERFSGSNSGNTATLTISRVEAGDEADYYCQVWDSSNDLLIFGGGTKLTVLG	2.6
anti-mutCALR antibody clone 130 (antibody, human IgG1, lambda, N297A, V domains shown) VH: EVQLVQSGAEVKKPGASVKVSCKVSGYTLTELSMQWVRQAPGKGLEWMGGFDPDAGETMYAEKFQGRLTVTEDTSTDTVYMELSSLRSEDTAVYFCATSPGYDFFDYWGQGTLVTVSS VL: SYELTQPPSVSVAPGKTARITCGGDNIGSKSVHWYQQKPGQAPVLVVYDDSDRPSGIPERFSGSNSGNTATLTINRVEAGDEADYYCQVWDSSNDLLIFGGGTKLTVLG	1.7
anti-mutCALR antibody clone 62 (antibody, human IgG1, lambda, N297A, V domains shown) VH: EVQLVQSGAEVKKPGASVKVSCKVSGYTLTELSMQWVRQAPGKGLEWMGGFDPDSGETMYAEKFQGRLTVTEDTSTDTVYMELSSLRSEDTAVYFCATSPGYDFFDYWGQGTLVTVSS VL: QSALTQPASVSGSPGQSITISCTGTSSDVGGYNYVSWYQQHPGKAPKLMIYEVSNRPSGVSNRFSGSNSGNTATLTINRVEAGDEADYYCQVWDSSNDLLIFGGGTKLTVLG	5.4
anti-mutCALR antibody clone 40 (antibody, human IgG1, lambda, V domains shown, human IgG1) VH: EVQLVQSGAEVKKPGASVKVSCKVSGYTLTESSMHWVRQAPGKGLEWMGLVDPEDGETIYAQKFQGRVTMTEDTSTDTAYMELSSLRSEDTAVYYCAREEWSGDGDDAFDIWGQGTMVTVSS VL: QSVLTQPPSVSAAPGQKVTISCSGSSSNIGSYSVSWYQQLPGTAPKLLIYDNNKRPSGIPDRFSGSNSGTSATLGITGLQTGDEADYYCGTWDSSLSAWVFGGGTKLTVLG	70
anti-mutCALR antibody clone 63 (antibody, human IgG1, lambda, N297A, V domains shown) VH: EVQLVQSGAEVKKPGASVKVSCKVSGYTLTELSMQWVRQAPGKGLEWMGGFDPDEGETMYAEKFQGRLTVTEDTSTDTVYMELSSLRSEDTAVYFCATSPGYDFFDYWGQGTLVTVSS VL: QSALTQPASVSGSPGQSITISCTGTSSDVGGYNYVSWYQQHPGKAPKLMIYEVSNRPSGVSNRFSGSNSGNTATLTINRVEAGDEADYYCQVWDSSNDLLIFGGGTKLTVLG	5.5
anti-mutCALR antibody clone 189 (antibody, human IgG1, lambda, N297A, V domains shown) VH: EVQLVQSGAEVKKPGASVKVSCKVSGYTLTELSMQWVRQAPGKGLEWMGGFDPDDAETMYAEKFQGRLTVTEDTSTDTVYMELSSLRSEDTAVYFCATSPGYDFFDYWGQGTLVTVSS VL: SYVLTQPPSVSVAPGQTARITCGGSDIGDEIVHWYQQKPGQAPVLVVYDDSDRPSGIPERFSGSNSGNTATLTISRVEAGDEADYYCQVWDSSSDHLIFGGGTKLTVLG	10
